tested on: antigen-induced bronchconstriction in rats sensitized with N. brasliensis; assay: AA: antiallergy (anti-anaphylactic) activity against antigen-induced bronchoconstriction in sensitized rats; conditions: Rattus norvegicus, ip, 1 h, read-out: AA (rat), % protection
Measured inhibition in vivo at 75 mg/kg values are reported for all entries that follow.
measuredParameter: inhibition in vivo at 75 mg/kg (%)

[
  {
    "molecule": "COC(=O)n1c(C)nc2c1c(=O)n(C)c(=O)n2C",
    "targetUnderTest": "antigen-induced bronchconstriction in rats sensitized with N. brasliensis",
    "measuredParameter": "inhibition in vivo at 75 mg/kg",
    "observed": 54
  },
  {
    "molecule": "CCC(C)Cn1c(=O)n(C)c(=O)c2c1nc(C)n2C(=O)OC (stereo not shown)",
    "targetUnderTest": "antigen-induced bronchconstriction in rats sensitized with N. brasliensis",
    "measuredParameter": "inhibition in vivo at 75 mg/kg",
    "observed": 70
  },
  {
    "molecule": "COC(=O)n1cnc2c1c(=O)n(C)c(=O)n2C",
    "targetUnderTest": "antigen-induced bronchconstriction in rats sensitized with N. brasliensis",
    "measuredParameter": "inhibition in vivo at 75 mg/kg",
    "observed": 82
  },
  {
    "molecule": "Cc1nc2c([nH]1)c(=O)n(C)c(=O)n2C",
    "targetUnderTest": "antigen-induced bronchconstriction in rats sensitized with N. brasliensis",
    "measuredParameter": "inhibition in vivo at 75 mg/kg",
    "observed": 49
  }
]
